Test: Plasma exposure (dried blood spot) after single oral dose
Format: in vivo
Conditions: male, Sprague Dawley, rat, whole blood (dried blood spot), po, 0.3 mg/kg, oral 0.3 mg/kg, 1 h, dried blood spot, read-out: Concentration, Mean
Procedure: Male Sprague Dawley rats at 6 to 7 weeks were dosed orally by p.o. gavage with different doses of BTTQ formulated in 1% hydroxyethlycellulose (Dow Corning, Midland, MI, United States) (w/v), 0.25% polysorbate 80 (Sigma-Aldrich, St. Louis, MO, United States) (v/v), and 0.05% antifoam (v/v; Dow Corning, Midland, MI, United States) in purified water. […]
Value Kind: concentration at 1 h (nM)
Write down the numeric answer in nM and omit the unit.

# concentration at 1 h of O=c1c2nnc(C3(C4CC4)CC3)n2c2c(n1CC1CC1)CCCC2 = 523

###

assay: Plasma exposure (dried blood spot) after single oral dose; format: in vivo; conditions: male, Sprague Dawley, rat, whole blood (dried blood spot), po, 1 mg/kg, oral 1 mg/kg, 3 h, FU 0.053, read-out: Unbound Concentration, individual animals
Value Kind: concentration at 3 h (nM)
Output spec: scalar in nM, unitless text.

What the record says about O=c1c2nnc(C3(C4CC4)CC3)n2c2c(n1CC1CC1)CCCC2 [BTTQ] : concentration at 3 h is 64.1

###

assay: Plasma exposure (dried blood spot) after single oral dose; format: in vivo; settings: male, Sprague Dawley, rat, whole blood (dried blood spot), po, 0.3 mg/kg, oral 0.3 mg/kg, 5 h, FU 0.053, read-out: Unbound Concentration, Mean
Value Kind: concentration at 5 h (nM)
Value expressed in nM; do not type the unit.

Measured concentration at 5 h, O=c1c2nnc(C3(C4CC4)CC3)n2c2c(n1CC1CC1)CCCC2 [BTTQ] : 8.68

###

assay: Plasma exposure (dried blood spot) after single oral dose; type: in vivo; settings: male, Sprague Dawley, rat, whole blood (dried blood spot), po, 1 mg/kg, oral 1 mg/kg, 5 h, FU 0.053, read-out: Unbound Concentration, individual animals
Value Kind: concentration at 5 h (nM)
Enter your answer as a number in nM; do not include the unit.

For O=c1c2nnc(C3(C4CC4)CC3)n2c2c(n1CC1CC1)CCCC2 [BTTQ] the compound record lists concentration at 5 h as 41.1

###

assay: Plasma exposure (dried blood spot) after single oral dose; format: in vivo; conditions: male, Sprague Dawley, rat, whole blood (dried blood spot), po, 0.1 mg/kg, oral 0.1 mg/kg, 6 h, FU 0.053, read-out: Unbound Concentration, Mean
Value Kind: concentration at 6 h

// sample O=c1c2nnc(C3(C4CC4)CC3)n2c2c(n1CC1CC1)CCCC2 [BTTQ] , its concentration at 6 h was 4.61 nM

###

assay: Plasma exposure (dried blood spot) after single oral dose; type: in vivo; conditions: male, Sprague Dawley, rat, whole blood (dried blood spot), po, 0.3 mg/kg, oral 0.3 mg/kg, 1 h, FU 0.053, read-out: Unbound Concentration, Mean
Value Kind: concentration at 1 h (nM)
API: value field is a number in nM; no unit string.

response.value for O=c1c2nnc(C3(C4CC4)CC3)n2c2c(n1CC1CC1)CCCC2 (field: concentration at 1 h) = 27.7

###

test: Plasma exposure (dried blood spot) after single oral dose; type: in vivo; settings: male, Sprague Dawley, rat, whole blood (dried blood spot), po, 0.3 mg/kg, oral 0.3 mg/kg, 3 h, dried blood spot, read-out: Concentration, Mean
Value Kind: concentration at 3 h (nM)
Kindly answer with a numeric value in nM, unit omitted.

O=c1c2nnc(C3(C4CC4)CC3)n2c2c(n1CC1CC1)CCCC2 yielded concentration at 3 h of 314

###

assay: Plasma exposure (dried blood spot) after single oral dose; format: in vivo; conditions: male, Sprague Dawley, rat, whole blood (dried blood spot), po, 0.3 mg/kg, oral 0.3 mg/kg, 3 h, FU 0.053, read-out: Unbound Concentration, Mean
Value Kind: concentration at 3 h (nM)
State just the number; it will be interpreted in nM.

// field: concentration at 3 h; key: O=c1c2nnc(C3(C4CC4)CC3)n2c2c(n1CC1CC1)CCCC2 ; value = 16.6

###

Assay: Plasma exposure (dried blood spot) after single oral dose
Type: in vivo
Settings: male, Sprague Dawley, rat, whole blood (dried blood spot), po, 1 mg/kg, oral 1 mg/kg, 2 h, FU 0.053, read-out: Unbound Concentration, individual animals
Description: Male Sprague Dawley rats at 6 to 7 weeks were dosed orally by p.o. gavage with different doses of BTTQ formulated in 1% hydroxyethlycellulose (Dow Corning, Midland, MI, United States) (w/v), 0.25% polysorbate 80 (Sigma-Aldrich, St. Louis, MO, United States) (v/v), and 0.05% antifoam (v/v; Dow Corning, Midland, MI, United States) in purified water. […]
Value Kind: concentration at 2 h (nM)
Please give a number only; it is taken to be in nM.

concentration at 2 h recorded for this molecule, O=c1c2nnc(C3(C4CC4)CC3)n2c2c(n1CC1CC1)CCCC2 , is 88.5

###

Experiment: Plasma exposure (dried blood spot) after single oral dose
Format: in vivo
Conditions: male, Sprague Dawley, rat, whole blood (dried blood spot), po, 3 mg/kg, oral 3 mg/kg, 1 h, FU 0.053, read-out: Unbound Concentration, individual animals
Experimental: Male Sprague Dawley rats at 6 to 7 weeks were dosed orally by p.o. gavage with different doses of BTTQ formulated in 1% hydroxyethlycellulose (Dow Corning, Midland, MI, United States) (w/v), 0.25% polysorbate 80 (Sigma-Aldrich, St. Louis, MO, United States) (v/v), and 0.05% antifoam (v/v; Dow Corning, Midland, MI, United States) in purified water. […]
Value Kind: concentration at 1 h (nM)
Give the quantity in nM, number only.

// concentration at 1 h value for O=c1c2nnc(C3(C4CC4)CC3)n2c2c(n1CC1CC1)CCCC2 : 142

###

Sequence of the target: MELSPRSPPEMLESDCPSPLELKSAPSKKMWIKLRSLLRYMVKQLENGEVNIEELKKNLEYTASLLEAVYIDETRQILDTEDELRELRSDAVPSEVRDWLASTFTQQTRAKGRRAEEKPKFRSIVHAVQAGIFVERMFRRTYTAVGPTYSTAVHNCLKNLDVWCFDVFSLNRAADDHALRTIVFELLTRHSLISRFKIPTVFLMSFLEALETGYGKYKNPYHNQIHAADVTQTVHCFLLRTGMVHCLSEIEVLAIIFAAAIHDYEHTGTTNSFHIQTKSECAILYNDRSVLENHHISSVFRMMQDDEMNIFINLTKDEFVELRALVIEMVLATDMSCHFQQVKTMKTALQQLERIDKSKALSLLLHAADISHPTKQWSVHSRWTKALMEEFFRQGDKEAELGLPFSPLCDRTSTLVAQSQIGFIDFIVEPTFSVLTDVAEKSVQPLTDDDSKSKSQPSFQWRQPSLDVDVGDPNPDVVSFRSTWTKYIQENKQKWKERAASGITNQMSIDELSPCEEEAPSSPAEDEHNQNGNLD
Value Kind: pIC50
Units for pIC50: none; it is -log10 of a concentration expressed in mol/L.

Please fill in: pIC50 reported for O=c1c2nnc(C3(C4CC4)CC3)n2c2c(n1CC1CC1)CCCC2 = 9.00

###

experiment: Fraction unbound in rat plasma; assay type: in vitro ADME; conditions: read-out: FU Value (FU Plasma Exp Rat)
Value Kind: fraction unbound

For record O=c1c2nnc(C3(C4CC4)CC3)n2c2c(n1CC1CC1)CCCC2 [BTTQ] the listed fraction unbound is 0.053

###

experiment: Plasma exposure (dried blood spot) after single oral dose; type: in vivo; conditions: male, Sprague Dawley, rat, whole blood (dried blood spot), po, 0.3 mg/kg, oral 0.3 mg/kg, 3 h, FU 0.053, read-out: Unbound Concentration, individual animals
Value Kind: concentration at 3 h (nM)
Lab book: enter the figure in nM, no units written.

concentration at 3 h for O=c1c2nnc(C3(C4CC4)CC3)n2c2c(n1CC1CC1)CCCC2 is 14.7

###

assay: Plasma exposure (dried blood spot) after single oral dose; type: in vivo; settings: male, Sprague Dawley, rat, whole blood (dried blood spot), po, 0.03 mg/kg, oral 0.03 mg/kg, 2 h, FU 0.053, read-out: Unbound Concentration, individual animals
Value Kind: concentration at 2 h (nM)
Hi! Could you send only the number? It should be in nM, unit omitted.

Entry under test: O=c1c2nnc(C3(C4CC4)CC3)n2c2c(n1CC1CC1)CCCC2 . Its concentration at 2 h was 2.17

###

assay: Plasma exposure (dried blood spot) after single oral dose; assay type: in vivo; conditions: male, Sprague Dawley, rat, whole blood (dried blood spot), po, 0.1 mg/kg, oral 0.1 mg/kg, 4 h, FU 0.053, read-out: Unbound Concentration, individual animals
Value Kind: concentration at 4 h (nM)
Give a bare numeral; the unit nM is implied.

concentration at 4 h in this record for O=c1c2nnc(C3(C4CC4)CC3)n2c2c(n1CC1CC1)CCCC2 : 7.1
